This section presents sequences with their documented folding stability dG unfold values.
Method Summary: folding stability dG unfold (combined trypsin and chymotrypsin); higher = more stable

Residue Sequence | folding stability dG unfold
SAGGSPVVPLPPDATATLTETVKVPRVLFDEEGNELEKLEVERTVTTTYTRLPGGEVATTTTTTTESAGGSA [r2_154_JUSTAS] | < -1 kcal/mol
SDPDAKLLPATFTFRDPLTGEEVTVEVTVYETSGYLLAPAKVTVTLPTKPRTLTATLLVDENGNVHLFVSSA [r9_1015_TrMRF] | 3.73 kcal/mol
SAGGSAGGSAGDTSVEYEVSVTVEVFPLPDYALVKVTLEVDYPDGSKEKVEYVFLVSPYEGSAGGSAGGSAG [r3_330_TrMRF] | 3.04 kcal/mol
SAGGSAGGSAGGPMSNVVEEVVSVEVTNPGLPDSRFVTNPEPGVPLPVPRTVPVVIVLRASAGGSAGGSAGG [r11_257_JUSTAS] | < -1 kcal/mol
SAGGSAGGSAGGMTIVLNIPKEELTEEEIKKLKESLPSDNPVKIIVKPKPPRKFYPKSTISAGGSAGGSAGG [r7_979_JUSTAS] | 0.925 kcal/mol
SAGGSAGGSKTITLSAEELEKMSPEERKKLAELAEKLGAKIEVKDGKVTITIEGLTPEELKALSAGGSAGGS [r12_945_TrROS_Hall] | 3.06 kcal/mol
SAGGSAGGKKKVLILPKGKKKEYTIEEAKKILKEKLPENAKVRLLETGKEYPVKDLLKKLGIDLSAGGSAGG [r6_936_TrMRF] | -0.207 kcal/mol

* * *

Method Summary: folding stability dG unfold from chymotrypsin proteolysis; higher = more stable
Parameter Measured: folding stability dG unfold

Residue Sequence | Result
SAGNVVETEEKPVESPLPRKATLTTLTSPTPGVTFRVFTSPENVTTVEVETDGRTETLEPAEAEALLASSAG [r5_157_JUSTAS] | -0.995 kcal/mol
SAGGSAGGSAGGSGSKEPKYYYRVVVEDDGNPVVRTYAPDEPLPAPANLKVFPFLADEESAGGSAGGSAGGS [r4_107_TrMRF] | 0.857 kcal/mol
SAGGSAGGSAGGKKYKVVSIEKTKDYVRITIYNEETGELKTFTFPPGSTVTIKPGDTLTSAGGSAGGSAGGS [r10_834_TrROS_Hall] | 4.53 kcal/mol
SAGGSAGGSEFYVIKIKNPETKKEIELVFEGSEEEIKAAIEELAKKPNLKIEIKKIKVSKEELSAGGSAGGS [r12_92_TrROS_Hall] | 1.78 kcal/mol

* * *

Method Summary: folding stability dG unfold (combined trypsin and chymotrypsin); higher = more stable

Residue Sequence | Value Comparator | folding stability dG unfold [kcal/mol]
SAGMAVVKITLEYEDGRKEEFILFVESENPEEVLEEAEEALAELIEELDVPLKSATIEIYDIPPDEELSAGG [r19_335_TrMRF] | = | 3
SAGGSAGGSDVEVEEVDVEIEVNGKKFKVKIYRNKKDKNRYYIFFEDTGKVFEIDKNGNIRPLSAGGSAGGS [r12_580_TrROS_Hall] | = | 3.21
SAGGSAGGSAGGSLTFDGPDTKIEVYELDDDLLPVTIYTDSAPRTILVPPKEFLKLLASSAGGSAGGSAGGS [r4_346_TrMRF] | = | 0.367
SEKVKITIEVWRPPGWWYVKIKLPDNGQEITYPFDSAEDFKEQIKKWLGLPPDNVKITDVEVYPMPPDDFSA [r9_909_TrROS] | = | 2.52
SAGGSAGGSAGGTIEELVKAGKTVKVRVRLKNGETLEVEIRPDEVVEFPNIEEIEVEEVSAGGSAGGSAGGS [r10_700_TrROS_Hall] | = | 1.51
SAGGSAKKKKTLKITLIIKVKTKEEAEKLAEELAEKLKKLLPEGAKIKVKVTVNKETGYVTVEIELSAGGSA [r15_981_TrROS_Hall] | = | 3.38
SAGGSAGGGKMEYDPKDGTMRWRDPANGIEHESRIEIPPIVIPADDLPKLREQFPPDMPVVLAGSAGGSAGG [r6_104_TrROS] | = | 0.722
SAGGSAGGMVLRITLPNGEVIEIPLEELGLSEEERKRRLAELLAEELRKLFPGKEIKVEVVELPSAGGSAGG [r6_164_TrROS_Hall] | = | 3.83
SAGGSAGGSAGPKPVLLTIEVEAKPDEAEAVAKEIYEKEFPEAKDVTVETFPEKGTFRVTFGSAGGSAGGSA [r18_390_TrMRF] | < | -1
SKNYPIRISIFQRNPNGNPQTVTYPIPVDAAKELKDAGFEVKDVDPDSGMIMVKFPMPNYPVYIMISIEDSA [r9_5_TrROS] | = | 2.98
SAGGSAGGSAGEKTIKIKVKDKNGKTKTITLKIKNAKFKPGQKIEIVKVNKNGSLEIKLKSAGGSAGGSAGG [r11_733_TrROS_Hall] | = | 1.6
SAGGSAGGSAGGPRVTGTPVPGDDEPLLVVEREYTVEVGGGPRPVRVRFVFDHPDEALRSSAGGSAGGSAGG [r7_896_TrMRF] | < | -1
SAGGSAGGSAGGIKLENPNGFEVYKSPDSMVEIEFVNPNGKPMRYIIQVDEPGEIKPYPVSAGGSAGGSAGG [r7_423_TrROS] | = | 0.0566
SAGGSAGGSAGGVTVSPEEYLATFPPGLTLRDSAGNLHELGDRAPVDPAAPVTLLSPEELSAGGSAGGSAGG [r7_507_JUSTAS] | = | -0.18

* * *

Method Summary: folding stability dG unfold (combined trypsin and chymotrypsin); higher = more stable
A collection of sequences and their measured folding stability dG unfold
Parameter Measured: folding stability dG unfold

Residue Sequence | Result
SAGGKKKTAEELAEELKKKLEELGFKVVKIEKLPDGTVLITFEDGYVIKFDVKTGKITIMPKEELEKLSAGG [r13_717_TrROS_Hall] | 1.96 kcal/mol
SAGGSAGGSVLPDVLRTLFPDAKVTVKVTEVSETSATVDVEVEVPVPGGSTRRFRLKLEVPLSSAGGSAGGS [r20_78_TrMRF] | 2.14 kcal/mol
SAGGSAGGSAGGSMVVPASEVEEYVERRKRETGDRFEVTPIPEEGVTPVRLEPADPALESAGGSAGGSAGGS [r4_419_JUSTAS] | < -1 kcal/mol
SAGGMTLDQLKENIKSVEVYPHPDGGYRMRVQIPQPNPDGKPKPREFNIPMPPNDPNMSADNVIDQILSAGG [r13_319_TrROS] | < -1 kcal/mol
SAGPRPIEIYVDPDGMINIRFPNNGREINIPIPKGAEIEIIELPDDYIVIEIKFGGETREFWIPPEDISAGG [r19_309_TrROS] | 3.46 kcal/mol
SAGMPELVEFPFPIPPEFPDIPPETLAKLIAEELNEEEFSVEVKSYDPEKPIVTLTVTKDGKPVAEFTDSAG [r5_80_TrMRF] | < -1 kcal/mol
SAGGSAPIKITIHWDPENGMYRIKGKTPDGPVEYPFPRDELRNMPIENFADELNYEIKDVEIEPYPSAGGSA [r15_801_TrROS] | < -1 kcal/mol

* * *

Method Summary: folding stability dG unfold from chymotrypsin proteolysis; higher = more stable
folding stability dG unfold values for the sequences below.

Residue Sequence | folding stability dG unfold
SAGGNNAWVQITIPITIKPVYEPEYDPDNGKPKWEPREMEIPITIWAPFDDPEDAERAADDILKSLGISAGG [r13_35_TrROS] | 0.769 kcal/mol
SAGGKEIKIEVELDEDGNLTVTITLPDGRVVRITFTPGKITVEVFDAETGELVEEKTLTADELLELLSAGGS [r8_476_TrROS_Hall] | 3.81 kcal/mol
SAGGSAGGSPDLPELNIEPVSTLPDGSKIYRADVSPEAIARLKAANPAVTVEEHPDFLLLFLRESAGGSAGG [r6_395_JUSTAS] | 0.666 kcal/mol
SAGKVLEELGYELVEEKEEEIGDVKIITATFPVGESPVVVTAEVTEKKEDDKPIVKVKVTVTPLPPEAPSAG [r5_516_JUSTAS] | 0.977 kcal/mol
SAGGSAGGSAGGSMTSIKITYPDGSTKSASVSVDPNTGKVTTTFTDYTLSPDAKFTTISSAGGSAGGSAGGS [r10_306_JUSTAS] | 0.202 kcal/mol
SAGGSAGGSAGSMTVTVTGGGVSVEVYPETGLVRVRSPSGSETLVDIATGEVVRREPAAASAGGSAGGSAGG [r11_149_JUSTAS] | 0.872 kcal/mol
SAGGSAGGSAGGSLTFDGPDTKIEVYELDDDLLPVTIYTDSAPRTILVPPKEFLKLLASSAGGSAGGSAGGS [r4_346_TrMRF] | 0.449 kcal/mol

* * *

Method Summary: folding stability dG unfold from chymotrypsin proteolysis; higher = more stable
Values of folding stability dG unfold greater than or equal to 2 kcal/mol map to label 1; values below map to label 0.

Residue Sequence | Cat
SAGGSSSVGVDSSDPEKTKEAILKAYGTDAEPVFTTDPATGRLTITVPETGDVHTVTAGTRTETAASAGGSA [r2_205_JUSTAS] | label 0
SEAEEAARKLAEELGLEVEVVEVDEETGTVTVRVRFEDEPTVTITITFDEETGELTVTIEVRPPPPPPPESA [r9_1119_TrROS_Hall] | label 1
SAGGIVVKVADGSYVRIVVYDPNNPVPRIETFPGGGVDDVIAAIAASPSFPNTVVYVERFDDGKPYPASAGG [r13_914_TrMRF] | label 0
SAMYKIRLKNGEEIELEGMSIEELEKLFPDVELEIEKVEKVPVVKAPSKEEAEELAKKLPPGAKIIVEDSAG [r14_445_TrROS_Hall] | label 0
SAGGSAGGSAGDKNGKPPPKIEIVPIRMSFRFPELGWWIEIDIYVIKDPAIMISISLYPYSAGGSAGGSAGG [r11_883_TrROS] | label 1
SAGGSAGGSAGAKKLPPGQVALRIEPVTVTVTDEDGKERTVTRIRLVDAATGEEYEFTFPSAGGSAGGSAGG [r17_266_TrROS_Hall] | label 0
SAGELELELELEFELEDGYRVEVRLRLRVRPDGSVRMELEVRIEPLPPPPPVRVVVVREDDPEALRALSAGG [r19_12_TrROS_Hall] | label 1
SAGGSAGGKITITLPGAEIVSVEESEDGKTITITVRLENGELLKITLKRVNGKWYITKIELLKPSAGGSAGG [r6_718_TrROS_Hall] | label 1
SMYYLVTITVTIRKDGKPVSVTPIYLAVPPEKAEEVAAEIKKSHPDLEVTITMEVTEVSEDDEEVKELLKSA [r9_782_JUSTAS] | label 1
SAGGSAGGMIEVESFPEIGYILVKAKSEKPEEIAKEVLEKFNVKEAVVFEDPEKPYVYILAKIDSAGGSAGG [r6_661_TrMRF] | label 0
SAGGKIKIMDIEIERHGGYYKIEIWIQVDTPDDIEDLLKAGVPNVEVERRRNPNGRLYVQAEFYIPAGSAGG [r13_506_TrROS] | label 1
SAGGSAGGSKKKPYIIKIYYKDPKTKKKSKKEILVSGKVKNPEKFAKEAAKKLGPVGKVEFKPSAGGSAGGS [r12_942_TrMRF] | label 0
SAGGSAGGSSQEREFTLPDPDGKDIKITMHQNPDGRPRAEIENKDGEPVKEFDSPDDIEDLLKSAGGSAGGS [r20_202_TrROS] | label 0
PFPIYVKIERDGKPVREEPIPMDELQEMPVEEVIEYARELLRQFPGRKYKVEVYFPGGPREFEIKDPEDIKS [r1_477_TrROS] | label 0
SAGGSAGGSKEKYIKIVVEVNGEKKVIVVKAKTIEELEELAKKLNLEVEIEKREDGYLVIRLKSAGGSAGGS [r12_810_TrROS_Hall] | label 1
SAGGMKIEKIFSSEEEAKAAAEKIKNETPEGKELKIEISKIPLKENLPPESPEILDEERYIVKVELPSAGGS [r16_795_JUSTAS] | label 0
SDALKNIPFEIVEIDPPPPDRPIPAGGTVRITVYNPLTPGQPFTFDVRFIPGEGTLIAEIGGLPVEIPIGSA [r9_243_TrMRF] | label 1
SAGGKSVHIPGLSFEDLRDLIRNLPEPVTIHIEMPMRYPMYKYENGKPKEWQRQEMPMTSTFKIPPDDSAGG [r13_632_TrROS] | label 0
SAGGSAMAYLVRAELEVEGPDGRRERLELVLVAEDLPLEEALAAAREAAAELGAELVSVEVEPLEPSAGGSA [r15_550_TrMRF] | label 1
SAGGSADADDVTIVINMFRNPNNKGWFFRIEIQDPDKEREIFMPFDDIPKFQEAGLKIEITEWYPFSAGGSA [r15_783_TrROS] | label 1
SAGGSAGGSGSMSIPVGSPEALREYLRERLPPEADLSEEELEALVEELLAKASIDSDGRLHLASAGGSAGGS [r12_983_JUSTAS] | label 1
SAGGSAGGSAGMVTRRMTPEEAEKFIADLPSDWSVEEISPLPENDIVEIKIKVEPPFKLQSAGGSAGGSAGG [r17_98_JUSTAS] | label 0
SAGGSAGGSAGGGPAPGKGLVVKLEPEEFEFENFRLIVVKAVKDDKLIAEIAYLISPDESAGGSAGGSAGGS [r10_628_TrMRF] | label 0
MITPEEAIELAKEKAKELLEKAGPGTPSVVVEIKAEDGRVVKVEVDPVKKVINITVYDKGGKKVAEKIIEES [r1_370_JUSTAS] | label 1
SAGGPEVEAERFGDTVLVRITLLDPETGEPYEFLAIATRRPDGTVTVTIIHPDGRPSTIPLPLLPLASAGGS [r16_154_TrMRF] | label 0
